The values you see were collected from the RepoRT retention time repository (doi:10.1016/j.foodchem.2021.129757).

experiment: RP, Agilent InfinityLab Poroshell 120 EC-C18, 100 × 3 mm, 2.7 µm, 25 °C, 0.4 mL/min, estimated dead time 1.1 min; A: water + 0.1% formic acid, pH 3; B: acetonitrile + 0.1% formic acid, pH 3; gradient (min/%B) 0/5 10/25 20/40 24/90 25/90 26/5 30/5; conditions: stereoisomer not certain
Counter-ions that a name gives are not always drawn.
Exercise: for every item that follows, state its recorded LC retention time.
Answers without a unit are incomplete; give the number and then its unit.

Enquiry: Reported LC retention time for O=S(=O)([O-])Oc1ccc(C2COc3cc(O)ccc3C2)cc1 (stereo not drawn) [Equol sulfate] : what is it?
Return: 11.6 min

Enquiry: Check O=C(CCc1ccc(O)cc1)c1c(O)cc(O)cc1O [Phloretin] too.
Return: 16.7 min

Enquiry: Check O=C(O)C1OC(Oc2c(-c3ccc(O)cc3)oc3cc(O)cc(O)c3c2=O)C(O)C(O)C1O (stereo not drawn) [Kaempferol-3-O-glucuronide] too.
Return: 10.5 min

Enquiry: Check OCC1OC(Oc2cc3c(O)cc(O)cc3[o+]c2-c2ccc(O)c(O)c2)C(O)C(O)C1O (stereo not drawn) [Cyanidin 3-O-glucoside] too.
Return: 5.65 min

Enquiry: Check O=c1c(O)c(-c2ccc(O)cc2)oc2cc(O)cc(O)c12 [Kaempferol] too.
Return: 14.1 min

Enquiry: Check CC1OC(OC2C(Oc3cc(O)c4c(c3)OC(c3ccc(O)cc3)CC4=O)OC(CO)C(O)C2O)C(O)C(O)C1O (stereo not drawn) [Naringin] too.
Return: 10.6 min

Enquiry: Check O=C(O)CCc1ccc(O)c(O)c1 [Dihydrocaffeic acid] too.
Return: 6.04 min

Enquiry: Check COc1cc(C(=O)O)cc(OC)c1O [Syringic acid] too.
Return: 6.44 min

====

test: RP, Phenomenex Luna C18, 150 × 4.6 mm, 3 µm, 25 °C, 0.5 mL/min, estimated dead time 3.2 min; A: water + 0.1% formic acid, pH 3; B: acetonitrile + 0.1% formic acid, pH 3; gradient (min/%B) 0/0 30/30 35/40 50/80 52/80 60/0 65/0; conditions: stereoisomer not certain
Exercise: for every item that follows, state its recorded LC retention time.
Report the value in min with no unit label.

Enquiry: Reported LC retention time for O=C(O)Cc1ccc(O)cc1 [4-Hydroxyphenylacetic acid] : what is it?
Return: 14.7

Enquiry: Check COc1ccc(C2CC(=O)c3c(O)cc(O)cc3O2)cc1O (configuration not stated) [Hesperetin] too.
Return: 42.5

Enquiry: Check O=C(CCc1ccc(O)cc1)c1c(O)cc(O)cc1O [Phloretin] too.
Return: 41.2

Enquiry: Check O=S(=O)(O)Oc1c(O)cccc1O [Pyrogallol 2-O-sulfate] too.
Return: 18.4

Enquiry: Check O=c1oc2c(O)c(O)cc3c(=O)oc4c(O)c(O)cc1c4c23 [Ellagic acid] too.
Return: 14.2

Enquiry: Check O=c1oc2cc(O)ccc2c2ccc(O)cc12 [Urolithin A] too.
Return: 35.8

Enquiry: Check COc1cc(C=CC(=O)CC(=O)C=Cc2ccc(O)c(OC)c2)ccc1O [Curcumin] too.
Return: 48.7

Enquiry: Check COc1cc(C=CC(=O)O)cc(OC)c1O [Sinapic acid] too.
Return: 25.1

Enquiry: Check O=c1c(O)c(-c2ccc(OS(=O)(=O)O)c(O)c2)oc2cc(OS(=O)(=O)O)cc(O)c12 [Quercetin disulfate] too.
Return: 31.6

Enquiry: Check COc1cc(/C=C/C(=O)O)ccc1O [Ferulic acid] too.
Return: 23.8

Enquiry: Check Oc1cc(O)c2c(c1)OC1(c3ccc(O)c(O)c3)Oc3cc(O)c4c(c3C2C1O)OC(c1ccc(O)c(O)c1)C(O)C4 (configuration not stated) [Procyanidin A2] too.
Return: 24.4

Enquiry: Check O=c1c(O)c(-c2ccc(O)cc2)oc2cc(O)cc(O)c12 [Kaempferol] too.
Return: 37.7

Enquiry: Check O=C(O)CCc1ccc(O)cc1 [Phloretic acid] too.
Return: 19.9

Enquiry: Check COc1cc(-c2oc3cc(O)cc(O)c3c(=O)c2O)ccc1O [Isorhamnetin] too.
Return: 42.5

Enquiry: Check O=C(O)c1ccc(O)c(O)c1 [Protocatechuic acid] too.
Return: 9.27

Enquiry: Check OCC1OC(Oc2cc3c(O)cc(O)cc3[o+]c2-c2ccc(O)c(O)c2)C(O)C(O)C1O (configuration not stated) [Cyanidin 3-O-glucoside] too.
Return: 9.83

Enquiry: Check CC1OC(OC2C(Oc3cc(O)c4c(c3)OC(c3ccc(O)cc3)CC4=O)OC(CO)C(O)C2O)C(O)C(O)C1O (configuration not stated) [Naringin] too.
Return: 26.7

Enquiry: Check O=c1ccc2c(O)c3ccoc3cc2o1 [Bergaptol] too.
Return: 37.6

Enquiry: Check O=c1c(O)c(-c2ccc(OS(=O)(=O)O)c(O)c2)oc2cc(O)cc(O)c12 [Quercetin 4-O-sulfate] too.
Return: 47.6

Enquiry: Check O=c1cc(-c2ccc(O)c(O)c2)oc2cc(O)cc(O)c12 [Luteolin] too.
Return: 42.1

Enquiry: Check Oc1cc(O)c2c(c1)OC(c1ccc(O)c(O)c1)C(O)C2 (single isomer, unassigned; (-)) [(-)-Epicatechin] too.
Return: 15.9

Enquiry: Check O=C(O)CCc1ccc(O)c(O)c1 [Dihydrocaffeic acid] too.
Return: 14.2
